Tested on: CHEK2;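 also: KINOMEscan kinase panel screen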
reported conditions: concentration: 1 μM, replicates: in singlicate; n = 1
Recorded measurements of %Inh, one per entry
Number plus unit, in that order.

Here are 2 molecules together with their reported answers.
# molecule, %Inh
data = [
    ("CNCc1ccc2nc(NC(=O)c3ccc(C(C)(C)C)cc3)cn2c1", "0%"),
    ("COC(=O)c1cccc(NC(=O)NC2CCN(c3ccnc(Nc4ccc(F)cc4)n3)C2)c1 (centres unmarked)", "0%"),
]

Dear colleague, please send me the reported %Inh for CC(=O)c1c(C)c2cnc(Nc3ccc(N4CCNCC4)cn3)nc2n(C2CCCC2)c1=O when you can.
16%

State its %Inh for this molecule: c1ccc(-c2ccnc3[nH]ccc23)cc1
0%

Report measured %Inh; entry is COc1cccc(CNC(=O)NC2CCN(c3ccnc(Nc4ccc(F)cc4)n3)C2)c1 (centres unmarked)
0%

The reported measurements were obtained from paper PMC5540273.
